# target_system: BTG-2 (Streptomyces griseocarneus)
# Construct: Ca2+-independent; made as pre-pro-protein
# test: Substrate specificity: synthetic substrates with hydroxylamine
# Format: biochemical, Streptoverticillium griseocarneum IFO 12776
# particulars: substrate 5 mM, with hydroxylamine
Residues, ends and D or L forms follow the SMILES beside them. *: point of attachment. Cbz = O=C(OCc1ccccc1)*
measured_parameter: Reactivity of substrate with BTG-2 (relative, Table 1)
Enter a number only.

Examples from the recorded data:
>>> endpoint_result("NC(=O)CC[C@H](NC(=O)OCc1ccccc1)C(=O)NCC(=O)O [CBZ--Gln--Gly, benzyloxycarbonylglutaminyl glycine] (Cbz-Gln-Gly-OH)")
100
>>> endpoint_result("NC(=O)CC[C@H](NC(=O)OCc1ccccc1)C(=O)O [CBZ--Gln, benzyloxycarbonyl glutamine]")
0
>>> endpoint_result("NCC(=O)N[C@@H](CCC(N)=O)C(=O)NCC(=O)O [Gly--Gln--Gly, glycylglutaminyl glycine] (H-Gly-Gln-Gly-OH)")
0
>>> endpoint_result("NC(=O)CC[C@H](NC(=O)CNC(=O)CNC(=O)OCc1ccccc1)C(=O)NCC(=O)O [CBZ--Gly--Gly--Gln--Gly] (Cbz-GGQG-OH)")
58
>>> endpoint_result("NC(=O)CC[C@H](NC(=O)CNC(=O)OCc1ccccc1)C(=O)NCC(=O)NCC(=O)O [CBZ--Gly--Gln--Gly--Gly] (Cbz-GQGG-OH)")
12

Problem: Give reported Reactivity of substrate with BTG-2 (relative, Table 1) value for CCOC(=O)CNC(=O)[C@H](CCC(N)=O)NC(=O)OCc1ccccc1 [CBZ--Gln--Gly--OEt] (Cbz-Gln-Gly-OEt)
Solution: 44

Problem: Give reported Reactivity of substrate with BTG-2 (relative, Table 1) value for NC(=O)CC[C@H](NC(=O)OCc1ccccc1)C(=O)N[C@@H](CCC(N)=O)C(=O)NCC(=O)O [CBZ--Gln--Gln--Gly] (Cbz-Gln-Gln-Gly-OH)
Solution: 39

Problem: Give reported Reactivity of substrate with BTG-2 (relative, Table 1) value for NC(=O)C[C@H](NC(=O)OCc1ccccc1)C(=O)NCC(=O)O [CBZ--Asn--Gly, benzyloxycarbonylasparaginyl glycine] (Cbz-Asn-Gly-OH)
Solution: 0

---

# target_system: BTG-2 (Streptomyces griseocarneus, UniProt A0ABX7RSJ1)
# Construct: Ca2+-independent; made as pre-pro-protein
# Assay type: biochemical, Streptoverticillium griseocarneum IFO 12776
# particulars: metal ion 1 mM; None = 100; 30 min
# Protocol: Measurement of the activity of BTGase is carried out by performing a reaction using benzyloxycarbonyl-L-glutaminyl glycine and hydroxylamine as substrates in the absence of Ca^2+, forming an iron complex with the resulting hydroxamic acid in the presence of trichloroacetic acid, measuring absorption at 525 nm and determining the amount of hydroxamic acid by a calibration curve to calculate the activity. The BTGase activity is measured by the method described below, unless otherwise indicated. […]
Catalogue of compounds with associated BTG-2 (%) activity with metal ion
A number alone suffices; assume %.

>>> endpoint_result("[Cl-].[Cl-].[Sr+2]")
101
>>> endpoint_result("[Cl-].[K+]")
99
>>> endpoint_result("[Cl][Fe]([Cl])[Cl]")
104
>>> endpoint_result("[Cl][Mn][Cl]")
97

Turning to the following compound.
Problem: Give reported BTG-2 (%) activity with metal ion value for [Ba+2].[Cl-].[Cl-]
Solution: 99
